- Test system: MDA-MB-231 cells (breast cancer cells)
- Assay Name: Cancer cell proliferation assay, MDA-MB-231
- Type: cell-based
- Experimental Parameters: Homo sapiens, MDA-MB-231, 72 h; three days incubation, absorbance 570 nm; read-out: IC50 (μM) MDA-MB-231
Kindly apply the following: Met if IC50 is less than 0.1 µM, Not met in every other case.

These solved cases illustrate the format of a correct answer.
In [3]: df
Out[3]:
                                   compound  label_class
0  O=C(/C=C\n1cnc(-c2cc(C(F)(F)F)cc(C(F)(F)F)c2)n1)NN1CCCCCC1=O [Compound 4]          Met
1  O=C(/C=C\n1cnc(-c2cc(C(F)(F)F)cc(C(F)(F)F)c2)n1)NN1CCC=CC1=O [Compound 88]      Not met
2  O=C(/C=C\n1cnc(-c2cc(C(F)(F)F)cc(C(F)(F)F)c2)n1)NN1C(=O)[C@H]2C=C[C@@H]1C2 [Compound 30]      Not met
3  O=C(/C=C\n1cnc(-c2cc(C(F)(F)F)cc(C(F)(F)F)c2)n1)NN1CCOCC1=O [Compound 38]      Not met
4  CC(C)N1C(=O)CCN1C(=O)/C=C\n1cnc(-c2cc(C(F)(F)F)cc(C(F)(F)F)c2)n1 [Compound 65]          Met

Okay, next one:
-- ask Dear colleague, could you confirm whether IC50 of O=C(/C=C\n1cnc(-c2cc(C(F)(F)F)cc(C(F)(F)F)c2)n1)N1CCC(=O)N1CC1CC1 [Compound 72] falls below 0.1 µM? Thanks.
-- reply Not met
